- System: HT29 colon
- experimental.protocol: NCI-60 one-dose screen, 48 h (100 = growth as untreated, 0 = no growth, -100 = all killed)
- experimental.conditions: 10 µM unless noted
The panel holds about 83,000 compounds, 20% with a hit somewhere; the sample as a whole holds those more often.
// NB: equality with 10% counts as -1; only growth strictly below is 1

Please review the entries below; each comes with its answer.
structure_string=O=C(Nc1ccc(-n2ccc3c(NC(=O)c4ccccc4)nccc32)cc1)Nc1cccc(C(F)(F)F)c1 class=1
structure_string=CCCN1C(=O)CSC1=Nc1ccc2cc3ccc(N=C4SCC(=O)N4CCC)cc3nc2c1 class=1
structure_string=O=[N+]([O-])c1ccccc1NC1c2ccccc2Oc2ccccc21 class=-1

Task: hey, is growth for `COC(=O)CCCNS(=O)(=O)c1cc(C(=O)Nc2ccc(NC(=O)c3cc(S(=O)(=O)NCCCC(=O)OC)c(O)c(O)c3O)cc2)c(O)c(O)c1O` lower than 10% or not?
Output: -1

Task: hey, is growth for `CCOc1ccc(NC2=C(Cl)C(=O)c3ccccc3C2=O)cc1` lower than 10% or not?
Output: -1

----------
- Test system: U251 CNS
- experimental.protocol: NCI-60 one-dose screen, 48 h (100 = growth as untreated, 0 = no growth, -100 = all killed)
- experimental.conditions: 10 µM unless noted
About 83,000 compounds went through this panel and 20% of them were active in at least one assay; those are over-represented in the sample as a whole.
readout.name: growth (%)
Return type: number; implicit unit %.

compound="COc1cccc(C2CC(c3cc(OC)c(OC)c(OC)c3)=NN2)c1 (configuration not stated)" measured_target="U251 CNS" readout_name=growth test_value=85.6

Task: Which growth reading was recorded for the compound `COc1ccc2c(c1)/C(=C/c1c(-c3cc(OC)c(OC)c(OC)c3Br)nc3sccn13)C(=O)N2` ?
Output: 93.4

Task: Which growth reading was recorded for the compound `Nc1nc(-c2cc3c(cc2Cl)NC(=O)/C3=C/c2ccccc2)cs1` ?
Output: 40.3

Task: Which growth reading was recorded for the compound COC1OCC(OS(=O)(=O)c2ccc(C)cc2)C(OC(=O)c2ccccc2)C1OC(=O)c1ccccc1 (configuration not stated) ?
Output: 39.3

Task: Which growth reading was recorded for the compound `COc1ccc(OC)c(NCC(=O)n2nc(/C=C\c3ccc(O)c(OC)c3)cc2/C=C\c2ccc(O)c(OC)c2)c1` ?
Output: 4.56

Task: Which growth reading was recorded for the compound `CCOc1ccc(Cc2nccc3cc(OCC)c(OCC)cc23)cc1OCC` ?
Output: 62.8

----------
- Test system: OVCAR-4 ovarian
- experimental.protocol: NCI-60 one-dose screen, 48 h
- experimental.conditions: 10 µM unless noted
About 83,000 compounds went through this panel and 20% of them were active in at least one assay; those are over-represented in the sample as a whole. The source made the active and inactive calls. How the source made its calls: active means growth percent below 10; inactive means the rest.
Answer with one of the outcomes active, inactive

Please review the entries below; each comes with its answer.
molecule=COc1ccc(/C=C/C(=O)c2ccc(Oc3ncnc4ccccc34)cc2)cc1OC class=inactive
molecule=Cc1cc(N2CCOCC2)nc(N(CCNc2ccnc3cc(Cl)ccc23)Cc2ccco2)n1 class=inactive
molecule=CC(C)Cn1cnc2c3ccccc3nc(NCn3nc(-c4cc(Cl)cc(Cl)c4Cl)oc3=S)c21 class=inactive
molecule=O=C(Nc1ccc(-n2ccc3c(NC(=O)c4ccccc4)ncnc32)cc1)c1ccc(Cl)c(C(F)(F)F)c1 class=inactive
molecule=COc1ccc(Cl)cc1NC(=O)c1cc2c([nH]1)-c1nc(N)sc1CCC2 class=inactive
molecule=COC(=O)/C=C/C(=O)c1cc(C)cc(C)c1O class=inactive
molecule=CO[C@H]1/C=C/C=C/C=C/C[C@H](OC(=O)[C@@H](C)NC(=O)C2CCCCC2)[C@H](C)[C@@H](O)/C(C)=C\CCC2=CC(=O)C=C(NC(=O)C1)C2=O class=active
molecule=COc1ccc(-c2nnc(NC(=O)CN3CCN(c4cc5c(cc4F)c(=O)c(C(=O)O)cn5C4CC4)CC3)s2)cc1OC class=inactive

Now turn to the next molecule.
Task: Name the outcome recorded for `COc1cc(-c2nc3ccccc3s2)ccc1OCc1nc2n(n1)S(=O)(=O)c1ccccc1N2C` in the assay.
Output: inactive
